test system: KM12 colon; experiment: NCI tumour cell line growth inhibition, 48 h
As shown below, each of these compounds has a reported TGI value.

>  <compound>
C[C@@H](NC(=O)Cn1c(Cl)nc2ccccc21)c1ccccc1

>  <TGI>
> 100 µM

$$$$
>  <compound>
CC1=NN(C(=O)CC(=O)NC(=O)/C=C\c2ccccc2)C(=O)C1N=Nc1ccc([N+](=O)[O-])cc1 (stereo not drawn)

>  <TGI>
> 100 µM

$$$$
>  <compound>
O=NN1CCN=C1c1ccc([N+](=O)[O-])cc1

>  <TGI>
> 100 µM

$$$$

For the compound `c1ccc(C2=NN=C3C(c4ccccc4)=Nc4ccccc4N3C2)cc1` , the measured TGI on KM12 colon was > 100 µM

For the compound `Cc1cc(Cl)nc(N(CCCNc2ccnc3cc(Cl)ccc23)Cc2cccs2)n1` , the measured TGI on KM12 colon was 11 µM

For the compound `CN(C)c1cccc(OC(=O)NCCCl)c1` , the measured TGI on KM12 colon was > 100 µM

For the compound OC(CN1CCCC2CCCCC21)c1cc2ccccc2c2ccccc12 (stereo not drawn) , the measured TGI on KM12 colon was 4.04 µM

For the compound `Cc1cc2c(nn1)CCc1c-2no[n+]1[O-]` , the measured TGI on KM12 colon was > 100 µM

====

As shown below, each of these compounds has a reported GI50 value.
system: A549 NSCLC; assay: NCI tumour cell line growth inhibition, 48 h

Worked cases, answers included:
>  <compound>
O=c1cc(-c2ccccc2)oc2cc(OCCCCCN3CCOCC3)cc(O)c12

>  <reported_measurement>
> 100 µM

$$$$
>  <compound>
CC1=NN(c2cccc(Cl)c2)C(=O)/C1=C\C=C\c1ccccc1

>  <reported_measurement>
16.4 µM

$$$$
>  <compound>
CC(C)(O)CCc1cccc(C(=O)c2cnn(-c3ccc(F)cc3)c2N)c1

>  <reported_measurement>
> 25 µM

$$$$
>  <compound>
O=C(NCc1ccco1)C1CCN(S(=O)(=O)c2ccc(Cl)cc2)CC1

>  <reported_measurement>
78.3 µM

$$$$
>  <compound>
COc1cccc(N2CCN(c3ncnc4cc[nH]c34)CC2)c1

>  <reported_measurement>
12.2 µM

$$$$

For the compound `Cc1cc(-c2nc3n(c2/C=N/N=C(N)N)CCS3)c(C)s1` , the measured GI50 on A549 NSCLC was 15.7 µM

====

tested on: ACHN renal; test: NCI tumour cell line growth inhibition, 48 h
test_readout: TGI

Worked cases, answers included:
>  <molecule>
Cc1ccc(NC(=S)C#N)c(C)c1

>  <target>
ACHN renal

>  <TGI>
> 100 µM

$$$$
>  <molecule>
C1=Nc2ccc(cc2)-c2ccc(cc2)N=Cc2ccc(cc2)OCc2cccc(n2)COc2ccc1cc2

>  <target>
ACHN renal

>  <TGI>
> 100 µM

$$$$
>  <molecule>
COC(=O)c1c2c(c(C)[n+]([O-])c1C)C(=O)C(NCc1ccc(F)cc1)=CC2=O

>  <target>
ACHN renal

>  <TGI>
4.04 µM

$$$$

With those in mind, consider the next molecule.
Measured TGI of `C[C@H](c1ccccc1)n1c(N)c(-c2nc3ccccc3s2)c2ccc([N+](=O)[O-])cc2c1=O` : 65.7 µM
